target: EPHB2 (UniProt P29323); assay: phosphorylation enrichment, bacterial display (enrichment ratio); higher = better substrate or ligand; peptides without Tyr show the background;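 further: 11-residue human phosphosite peptides and single-mutation variants displayed on the E. coli surface, counted by deep sequencing, each peptide's frequency after selection divided by its frequency in the unselected input library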;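 further: frequency after pTyr selection over input frequency; kinase dosed for 20-30% of maximal phosphorylation in three min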
Sequence (P29323 whole entry, looked up): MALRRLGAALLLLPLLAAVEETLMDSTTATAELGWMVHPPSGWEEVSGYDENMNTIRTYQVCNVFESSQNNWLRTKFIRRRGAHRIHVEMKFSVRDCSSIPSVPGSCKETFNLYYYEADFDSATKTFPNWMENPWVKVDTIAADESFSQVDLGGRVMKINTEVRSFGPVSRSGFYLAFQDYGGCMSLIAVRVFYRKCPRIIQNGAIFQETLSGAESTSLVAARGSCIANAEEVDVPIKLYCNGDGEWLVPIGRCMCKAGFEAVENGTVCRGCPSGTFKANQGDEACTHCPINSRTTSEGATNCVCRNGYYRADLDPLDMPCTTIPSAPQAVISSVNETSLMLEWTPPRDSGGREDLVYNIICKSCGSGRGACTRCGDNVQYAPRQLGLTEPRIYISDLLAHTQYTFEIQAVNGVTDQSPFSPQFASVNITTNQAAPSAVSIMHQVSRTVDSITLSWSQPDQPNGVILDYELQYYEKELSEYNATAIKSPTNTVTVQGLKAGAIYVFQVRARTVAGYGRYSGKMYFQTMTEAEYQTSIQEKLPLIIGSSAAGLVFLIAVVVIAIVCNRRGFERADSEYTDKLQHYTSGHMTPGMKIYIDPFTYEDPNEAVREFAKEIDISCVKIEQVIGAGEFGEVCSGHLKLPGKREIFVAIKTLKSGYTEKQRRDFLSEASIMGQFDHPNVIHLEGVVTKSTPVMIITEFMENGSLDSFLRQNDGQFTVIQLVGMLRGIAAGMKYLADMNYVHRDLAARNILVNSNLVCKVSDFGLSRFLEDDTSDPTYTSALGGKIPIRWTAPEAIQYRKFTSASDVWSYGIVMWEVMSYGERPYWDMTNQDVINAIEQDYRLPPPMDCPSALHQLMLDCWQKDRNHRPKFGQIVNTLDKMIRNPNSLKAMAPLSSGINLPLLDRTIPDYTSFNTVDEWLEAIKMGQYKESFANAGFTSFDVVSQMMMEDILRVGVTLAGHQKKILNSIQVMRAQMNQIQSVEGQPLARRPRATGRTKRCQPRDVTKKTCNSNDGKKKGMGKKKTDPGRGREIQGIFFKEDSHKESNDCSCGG
Measure name: phosphorylation enrichment
Reply briefly: the number, and no unit.

Some sequences with known phosphorylation enrichment results, for comparison:
Sequence chain	Experimental result
WIPIQCPIISE [NOG_Y222_Y222C]	0.591
NKVFTYIFIME [SCN4A_Y1074_D1069N]	0.613
SARSAYQEAMD [SFN_Y151]	0.584
RREWYYEVIIA [BACE1_Y260_V265A]	0.442

Exercise: Give the reported phosphorylation enrichment for KDFETYQPFQN [CTNND2_Y1157_YF] (system: EPHB2 (UniProt P29323)).
Solution: 0.786

Exercise: Give the reported phosphorylation enrichment for TQFWLYFAGNL [SLC25A5_Y112] (system: EPHB2 (UniProt P29323)).
Solution: 0.665

Exercise: Give the reported phosphorylation enrichment for ANAFIYVVQLP [L1CAM_Y420_YF] (system: EPHB2 (UniProt P29323)).
Solution: 0.743

Exercise: Give the reported phosphorylation enrichment for DGTESYHTVSS [PLK1_Y462_L463H] (system: EPHB2 (UniProt P29323)).
Solution: 0.514

Exercise: Give the reported phosphorylation enrichment for SVTCTCSPALN [TP53_Y126_Y126C] (system: EPHB2 (UniProt P29323)).
Solution: 0.614

Exercise: Give the reported phosphorylation enrichment for AMCVRYDGVEV [ADAMTSL2_Y594] (system: EPHB2 (UniProt P29323)).
Solution: 0.735

Exercise: Give the reported phosphorylation enrichment for QRALLYEDALY [UNC13D_Y56] (system: EPHB2 (UniProt P29323)).
Solution: 12.3

Exercise: Give the reported phosphorylation enrichment for LIEQAYDNPHE [PRPF8_Y871] (system: EPHB2 (UniProt P29323)).
Solution: 0.824

Exercise: Give the reported phosphorylation enrichment for EEQKKYYNAMK [SCN5A_Y1494] (system: EPHB2 (UniProt P29323)).
Solution: 0.492

Exercise: Give the reported phosphorylation enrichment for NFRTIYVNANE [KCNH2_Y475_T474I] (system: EPHB2 (UniProt P29323)).
Solution: 0.5

Exercise: Give the reported phosphorylation enrichment for QGIIIYKAAFF [SLC25A4_Y187_R188K_YF] (system: EPHB2 (UniProt P29323)).
Solution: 0.723

Exercise: Give the reported phosphorylation enrichment for VIKDKYPKARY [APTX_Y209] (system: EPHB2 (UniProt P29323)).
Solution: 0.417

Exercise: Give the reported phosphorylation enrichment for EILLSYPRTGY [TGM1_Y365_L366P] (system: EPHB2 (UniProt P29323)).
Solution: 0.456

Exercise: Give the reported phosphorylation enrichment for LKLKAYRFSIS [LCT_Y974_V971L] (system: EPHB2 (UniProt P29323)).
Solution: 0.948

Exercise: Give the reported phosphorylation enrichment for EFGSGYPNDPK [RNASEH2A_Y210_D205E_YF] (system: EPHB2 (UniProt P29323)).
Solution: 0.51

Exercise: Give the reported phosphorylation enrichment for KVPELYEIHTE [BCR_Y554_K558T] (system: EPHB2 (UniProt P29323)).
Solution: 0.945

Numbers sourced from the supplement of paper PMC10065799.
